Experiment: CREB reporter modulators under forskolin, primary screen, cell-based, PC12, CRE-LacZ reporter, forskolin-stimulated (AID 1146);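 note: PC12 cells with 6xCRE LacZ reporter stimulated by forskolin 10 µM; beta-galactosidase reporter signal reflecting CREB driven transcription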
Conditions: luminescence, 4.5 h, higher = more signal, called active from +8 up or from −8 down
Class t: z-score at least -0.3. Class f: z-score below -0.3.

Given the entry C#CCCCON=C1C[C@@H](O)[C@@H](O)[C@@H]2[C@@H]3C(=O)N([C@@H](C)c4ccccc4)C(=O)[C@@H]3CC[C@H]12 , answer whether its z-score meets or surpasses -0.3. f

Given the entry CN1C(=O)C2C=CC(C(O)c3ccc(Br)cc3)N(N(c3ccccc3)c3ccccc3)C2C1=O (stereo not drawn) , answer whether its z-score meets or surpasses -0.3. f

Given the entry CCCCCN1CC=CC23O[C@@H]4C=CCOC(=O)[C@@H]4[C@H]2C(=O)N(C(CO)C(C)C)[C@@H]3C1=O (stereo partly drawn) , answer whether its z-score meets or surpasses -0.3. t

Given the entry CCc1cc2c(nc1CC)CCN(CCC(C)=NOC(C)CN1CCCc3nc(C)c(C)cc31)C2 (stereo not drawn) , answer whether its z-score meets or surpasses -0.3. t

Given the entry CC(C)=CCCC(C)=CCON=C1C[C@@H](O)[C@@H](O)[C@@H]2[C@@H]3C(=O)N(C[C@@H]4CCCO4)C(=O)[C@@H]3CC[C@@H]12 , answer whether its z-score meets or surpasses -0.3. t

Given the entry CCCCCN1CC=CC23O[C@@H]4C=CCOC(=O)[C@@H]4[C@H]2C(=O)N(CCCCCCO)[C@@H]3C1=O (stereo partly drawn) , answer whether its z-score meets or surpasses -0.3. t

Given the entry COc1ccc(CCNC(=O)[C@@H]2c3ccccc3C(=O)N(c3ccc(C)cn3)[C@H]2c2ccc(CO)cc2)cc1 , answer whether its z-score meets or surpasses -0.3. t
